METHOD: protein stability index of a GFP-peptide fusion (yeast GPS) (PSI 1-4); higher = more stable; sorted into four equal gates, so the index is relative within each strain
CONDITION_DESCRIPTION: doa10∆
MEASURE: protein stability index

ENTRY_SEQUENCE | protein stability index
VTEANIIKLVEGLANDP [RPS12] | 2.51

Kindly review the next sequence as well.
Prompt line: Recorded protein stability index for TWRTQLAASEIGISIVG [ECM29] , please?
Response line: 1.72

----------
METHOD: protein stability index of a GFP-peptide fusion (yeast GPS) (PSI 1-4); higher = more stable; sorted into four equal gates, so the index is relative within each strain
CONDITION_DESCRIPTION: san1∆
The entries below come with measured protein stability index values attached.
Reply with the value as a number alone.

ENTRY_SEQUENCE | protein stability index
KMLSCAGADRLQQGMRG [RPL10] | 2.98

Prompt line: Recorded protein stability index for NVEEEQIVPYIEKLTDG [BRR2] , please?
Response line: 2.91

Prompt line: Recorded protein stability index for KTAQTLDENLNSLSSNL [YJL041W/NSP1] , please?
Response line: 2.23

Prompt line: Recorded protein stability index for MQFAKSKTVKVLKTLIE [RPN6] , please?
Response line: 2.51

Prompt line: Recorded protein stability index for KLLFDHDELDMNECIAD [ESC2] , please?
Response line: 1.03
